assay-system: Mitogen-activated protein kinase 14 (Homo sapiens)
Sequence (Q16539 whole entry): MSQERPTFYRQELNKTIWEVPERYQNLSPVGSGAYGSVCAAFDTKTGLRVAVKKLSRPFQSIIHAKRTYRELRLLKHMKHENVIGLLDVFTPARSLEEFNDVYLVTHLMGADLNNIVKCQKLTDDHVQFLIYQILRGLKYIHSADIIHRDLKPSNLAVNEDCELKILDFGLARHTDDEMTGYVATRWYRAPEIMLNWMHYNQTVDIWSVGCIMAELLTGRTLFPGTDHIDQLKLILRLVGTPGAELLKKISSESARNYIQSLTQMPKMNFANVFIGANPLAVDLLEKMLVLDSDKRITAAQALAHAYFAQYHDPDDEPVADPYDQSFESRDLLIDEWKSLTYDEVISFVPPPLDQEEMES
test-summary: Inhibition of bacterially expressed activated p38alpha pre-incubated 10 mins measured after 45 mins by scintillation counting
reported-metric: log10(IC50) (log10 of the value in nM)
Values reflect log10 of reported IC50 (nM).

Recorded log10(IC50), per entry:
1. CC(C)Nc1ncc(-c2cc(-c3ccccc3Cl)nc(NCCO)n2)s1 : 0.90
2. CC[C@H](C)Nc1ncc(-c2cc(-c3ccccc3Cl)nc(-c3ccccn3)n2)s1 : 0.90
3. CCCNc1ncc(-c2cc(-c3ccccc3F)nc(N)n2)s1 : 2.35
4. CCCNc1ncc(-c2cc(-c3ccc(OCC)cc3Cl)nc(-c3ccccn3)n2)s1 : 3.60
5. CCCNc1ncc(-c2cc(-c3ccccc3OCC)nc(-c3ccccn3)n2)s1 : 2.93

// below: log10(IC50) requested for another compound
input: Report its log10(IC50) with Mitogen-activated protein kinase 14 (Homo sapiens) as the test system: CC(C)Nc1ncc(-c2cc(-c3ccccc3Cl)nc(N(C)C)n2)s1
output: 2.76
